These entries and their values trace back to patent US20140249076A1.

# tgt: T1, CGRP receptor (SK-N-MC cell membranes) (UniProt Q16602 23-461; O60894 27-148)
# T1 construct: whole, on cells
# assay-overview: displacement of 125I-human CGRP from SK-N-MC cell membranes
# Description: Dried glass fiber plates were combined with scintillant and counted on a multiwell Perkin Elmer scintillation counter.
Numbered stars: 1 amine (or outer) side, 2 acyl side, 3 side chain; on linkers, the order of the positions; unused ones are H or OH. Side chains are listed from the residue outwards. Ends that are not written are not given here. γGlu = O=C(O)[C@H](CCC(=O)[*:2])N[*:1]
measured-property: pIC50
Scale note: pIC50 = -log10(concentration in M).

Past entries and their recorded results:
binder: K([γGlu-C16‑Chain])KCNTATCALQRLAQELHRLQTYPRTNVGSNTY-NH2 (ends and bridges not checked, The description is read as an extra acylated Lys placed before the N-terminus of Cmpd 17) [Cmpd 195 (Kε-(γ-Glu(Nα-C16-Chain))-Cmpd 17)]
pIC50: 9.22

binder: KCNTATCALQRLAQELHRLQTYPRTNVGSNTY-NH2 (ends and bridges not checked, Parent peptide of the fatty acid acylated compounds) [Cmpd 17]
pIC50: 8.90

// K([γGlu-C16‑Chain])CNTATCALQRLAQELHRLQTYPRTNVGSNTY-NH2 (ends and bridges not checked, Lys 1 is already present in Cmpd 17) [Cmpd 192 ([K^1ε-(γ-Glu(Nα-C16-Chain))]-Cmpd 17)] : pIC50 value = 8.35
